Value source: ChEMBL document CHEMBL3271964

- System: Trichomonas vaginalis
- TEST: Antimicrobial activity against Trichomonas vaginalis infected in po dosed mouse
- Assay type: functional
# note: boundary value 6 mg/kg maps to NOT MET; ED50 below it maps to MET

| MOLECULE | CATEGORY_LABEL |
| --- | --- |
| Cn1c(C(C)(C)O)cnc1[N+](=O)[O-] | MET |
| CCS(=O)(=O)CCn1c([N+](=O)[O-])cnc1C | MET |
| CS(=O)(=O)[O-].Cn1c(C(C)(C)[n+]2ccccc2)cnc1[N+](=O)[O-] | NOT MET |
| Cn1c(C(C)(C)OC(N)=O)cnc1[N+](=O)[O-] | MET |
| COC(C)(C)c1cnc([N+](=O)[O-])n1C | NOT MET |
| O=[N+]([O-])c1cncn1CCN1CCOCC1 | NOT MET |
| CC(CO)c1cnc([N+](=O)[O-])n1C (stereo not given) | NOT MET |
| Cn1c(C(C)(C)OC(=O)NN)cnc1[N+](=O)[O-] | MET |
| Cn1c(C(C)(C)OC(=O)Nc2ccccc2)cnc1[N+](=O)[O-] | NOT MET |
| Cn1c(C(C)(C)OC(=O)c2ccccc2)cnc1[N+](=O)[O-] | NOT MET |

====

- TEST: Acute toxicity in po dosed mouse
- Assay type: organism-based
- CONDITION_NOTES: in vivo
# note: boundary value 900 mg/kg maps to Criterion not met; LD50 below it maps to Criterion met

| STRUCTURE_STRING | CATEGORY_LABEL |
| --- | --- |
| CCS(=O)(=O)CCn1c([N+](=O)[O-])cnc1C | Criterion not met |
| COC(C)(C)c1cnc([N+](=O)[O-])n1C | Criterion met |
| Cn1c(C(C)(C)OC(=O)NN)cnc1[N+](=O)[O-] | Criterion met |
| O=[N+]([O-])c1cncn1CCN1CCOCC1 | Criterion not met |

====

Measured selectivity ratio accompanies every entry in the list below.
- TEST: Therapeutic index, ratio of LD50 for po dosed mouse to ED50 for Trichomonas vaginalis infected in po dosed mouse
- Assay type: organism-based
- CONDITION_NOTES: in vivo, read-out: Ratio LD50/ED50
MEASURED_PROPERTY: selectivity ratio

| COMPOUND | MEASURED_VALUE |
| --- | --- |
| O=[N+]([O-])c1cncn1CCN1CCOCC1 [NIMORAZOLE] | 40 |
| Cn1c(C(C)(C)OC(=O)NN)cnc1[N+](=O)[O-] | 141 |
| Cc1ncc([N+](=O)[O-])n1CCO [METRONIDAZOLE] | 658 |
| Cn1c(C(C)(C)OC(=O)Oc2ccccc2)cnc1[N+](=O)[O-] | 1970 |
| Cn1c(C(C)(C)OC(N)=O)cnc1[N+](=O)[O-] | 156 |
| Cn1c(C(C)(C)O)cnc1[N+](=O)[O-] | 423 |
| COC(C)(C)c1cnc([N+](=O)[O-])n1C | 99 |
| CCS(=O)(=O)CCn1c([N+](=O)[O-])cnc1C [TINIDAZOLE] | 1280 |
